melting point listing for selected compounds.
Where a name gives a salt, the structure may show the parent alone.
Numbers only here, please. The scale is °C.

1. CC(C)C(=O)N[C@H]1C[C@@H](c2cc(NC(=O)Cc3cccc4ccccc34)n[nH]2)C1 (as salt: HCl)	130.6
2. COc1cccc(C(=O)N[C@H]2C[C@@H](c3cc(NC(=O)Cc4cccc5ccccc45)n[nH]3)C2)c1 (as salt: HCl)	124.8
3. CC(C)(C)C(=O)NC1CCC(c2cc(Nc3cccc(C(F)(F)F)c3)n[nH]2)C1 (stereo not shown) (as salt: HCl)	249.2
4. O=C(Cc1cccc2ccccc12)Nc1cc([C@H]2C[C@@H](NC(=O)c3cccc([N+](=O)[O-])c3)C2)[nH]n1 (as salt: HCl)	123.5

Q: GET /values?readout=melting point&item= O=C(NC1CCC(c2cc(Nc3cccc(C(F)(F)F)c3)n[nH]2)C1)c1ccccn1 (stereo not shown) (as salt: HCl)
Ans: 180.1

Q: GET /values?readout=melting point&item= O=C(Cc1cccc2ccccc12)Nc1cc([C@H]2C[C@@H](NC(=O)c3cccc(C(F)(F)F)c3)C2)[nH]n1 (as salt: HCl)
Ans: 142.8

Q: GET /values?readout=melting point&item= O=C(Cc1cccc2ccccc12)Nc1cc([C@H]2C[C@@H](Oc3nc4ccccc4o3)C2)[nH]n1 (as salt: HCl)
Ans: 142
